Target: melanocortin-3 receptor (human, UniProt P41968 1-323)
Sequence (P41968 whole entry): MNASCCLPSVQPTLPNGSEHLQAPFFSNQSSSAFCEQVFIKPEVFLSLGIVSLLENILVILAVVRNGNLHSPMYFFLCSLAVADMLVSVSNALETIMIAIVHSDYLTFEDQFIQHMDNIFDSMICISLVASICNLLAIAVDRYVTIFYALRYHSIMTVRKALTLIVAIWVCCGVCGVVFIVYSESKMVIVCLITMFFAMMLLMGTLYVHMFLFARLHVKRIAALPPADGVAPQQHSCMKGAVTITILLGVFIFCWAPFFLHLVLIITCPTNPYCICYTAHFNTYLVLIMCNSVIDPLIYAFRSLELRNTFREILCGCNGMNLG
Assay: cell-based or functional assay
Bridge positions count the residues as written; N and C are the ends. Square brackets hold non-standard residues; d marks the D form. Pen = CC(C)(S)[C@H](N)C(=O)O; hCys = N[C@@H](CCS)C(=O)O
Form field: cAMP Assay (EC-50) (one value per entry).
Just the number please, in nM, no unit attached.

[[record]]
binder = "Ac-RC[dA]Q[dF]RWC-NH2 (disulfide 2-8; SMILES CC(=O)N[C@@H](CCCNC(=N)N)C(=O)N[C@H]1CSSC[C@@H](C(N)=O)NC(=O)[C@H](Cc2c[nH]c3ccccc23)NC(=O)[C@H](CCCNC(=N)N)NC(=O)[C@@H](Cc2ccccc2)NC(=O)[C@H](CCC(N)=O)NC(=O)[C@@H](C)NC1=O) [Ac-Arg-cyclo[Cys-D-Ala-Gln-D-Phe-Arg-Trp-Cys]-NH2]"
observed_result = 8.6


cAMP Assay (EC-50) recorded for this binder, Ac-RC[dL]H[dF]RWC-NH2 (disulfide 2-8) [Ac-Arg-cyclo[Cys-D-Leu-His-D-Phe-Arg-Trp-Cys]-NH2] , is 0.79

cAMP Assay (EC-50) recorded for this binder, Ac-R[hCys][dA][dF]RW[Pen]-NH2 (disulfide 2-7; SMILES CC(=O)N[C@@H](CCCNC(=N)N)C(=O)N[C@H]1CCSSC(C)(C)[C@@H](C(N)=O)NC(=O)[C@H](Cc2c[nH]c3ccccc23)NC(=O)[C@H](CCCNC(=N)N)NC(=O)[C@@H](Cc2ccccc2)NC(=O)[C@@H](C)NC1=O) [Ac-Arg-cyclo[hCys-D-Ala-D-Phe-Arg-Trp-Pen]-NH2] , is 233

cAMP Assay (EC-50) recorded for this binder, Ac-R[hCys]A[dF]RWC-NH2 (disulfide 2-7; SMILES CC(=O)N[C@@H](CCCNC(=N)N)C(=O)N[C@H]1CCSSC[C@@H](C(N)=O)NC(=O)[C@H](Cc2c[nH]c3ccccc23)NC(=O)[C@H](CCCNC(=N)N)NC(=O)[C@@H](Cc2ccccc2)NC(=O)[C@H](C)NC1=O) [Ac-Arg-cyclo[hCys-Ala-D-Phe-Arg-Trp-Cys]-NH2] , is 1
